- Test system: IGROV1 ovarian
- ASSAY METHOD TEXT: NCI-60 one-dose screen, 48 h
- MEASUREMENT PARAMETERS: 10 µM unless noted
Compounds without any hit were thinned out: in the full panel of roughly 83,000, 20% have a hit. Active and inactive are the calls of the source. How the source made its calls: active means growth percent below 10; inactive means the rest.
Classes used: True for active, False for inactive

>  <COMPOUND>
O=C(Nc1ccc(Cl)cc1)c1cc2ccccc2cc1OP(=O)(O)O

>  <CLASS>
True

$$$$
>  <COMPOUND>
O=C(c1nc2ccccc2[nH]1)C1C(c2ccc([N+](=O)[O-])cc2)C2CC3CCCCC3N2[C@@]12C(=O)Nc1cc(Cl)ccc12 (stereo partly drawn)

>  <CLASS>
False

$$$$
>  <COMPOUND>
CC(C)C[C@H](C(=O)N[C@H](C(N)=O)C(C)C)N1CC=CCN(OCc2ccccc2)S1(=O)=O

>  <CLASS>
False

$$$$
>  <COMPOUND>
CN1CCN(Cc2ccc(C(=O)Nc3cncc(C#Cc4cnc5cccnn45)c3)cc2C(F)(F)F)CC1

>  <CLASS>
False

$$$$
>  <COMPOUND>
CC(=O)c1ccc(NC(=O)Nc2ccc(S(=O)(=O)Nc3ccc(Cl)nn3)cc2)cc1

>  <CLASS>
False

$$$$
>  <COMPOUND>
COc1cc(NC(=O)CCSc2nc3ccccc3c(=O)n2Cc2ccccc2)cc(OC)c1OC

>  <CLASS>
False

$$$$
>  <COMPOUND>
O=C(Nc1ccc(Cl)cc1F)c1cc(F)ccc1O

>  <CLASS>
False

$$$$
>  <COMPOUND>
OCCNc1nc(Nc2ccc(C3=NN(c4cc(Cl)cc(Cl)c4)C(c4ccc(C(F)(F)F)cc4)C3)cc2)nc(N2CCOCC2)n1 (stereo not drawn)

>  <CLASS>
False

$$$$

---

- System: T-47D breast
- ASSAY METHOD TEXT: NCI-60 one-dose screen, 48 h
- MEASUREMENT PARAMETERS: 10 µM unless noted
The panel holds about 83,000 compounds, 20% with a hit somewhere; the sample as a whole holds those more often. Active and inactive are the calls of the source. Rule for the calls: active = growth percent below 10; inactive = the rest.
Classes used: active, inactive

>  <MOLECULE>
Cc1ccc(CN2CCC(C(=O)Nc3ccc(-c4cc5ccccc5[nH]4)cc3)CC2)o1

>  <CLASS>
inactive

$$$$
>  <MOLECULE>
CCN1CCN(C(=S)SCC(=O)Nc2nc3ccc(C)cc3s2)CC1

>  <CLASS>
inactive

$$$$
>  <MOLECULE>
O=C(Nc1ccc(F)cc1F)c1cc(Br)ccc1O

>  <CLASS>
active

$$$$
>  <MOLECULE>
COc1cc(/C=C/C(=O)c2ccc(Nc3nc(NCCO)nc(N4CCOCC4)n3)cc2)cc(OC)c1OC

>  <CLASS>
inactive

$$$$
>  <MOLECULE>
Cc1ccc2c(n1)C(=O)C(Oc1ccc(Br)cc1)=CC2=O

>  <CLASS>
inactive

$$$$
>  <MOLECULE>
CNCCNc1nc2ccccc2c2c(=O)c3cccc(OC)c3sc12

>  <CLASS>
inactive

$$$$
>  <MOLECULE>
COc1cc2c(cc1OC)C(=O)C(CC1CCN(C(=O)Nc3ccc(C)cc3)CC1)C2 (centres undefined)

>  <CLASS>
inactive

$$$$
>  <MOLECULE>
COC(=O)/C(CCC=C(C)C)=C1\[C@@H](OC(C)=O)C[C@@]2(C)[C@H]1C[C@@H](O)[C@H]1[C@@]3(C)CC[C@H](NCCO)[C@@H](C)[C@@H]3CC[C@@]12C

>  <CLASS>
inactive

$$$$
>  <MOLECULE>
Cc1cccc2c(=O)c3c(sc12)c(NCCN)nc1ccccc13

>  <CLASS>
active

$$$$
